Experimental Target: HLA-A*68:02
Test Method Notes: IEDB peptide-MHC binding, cellular MHC/competitive/fluorescence; bounds were set here for any values at or beyond the usual limits of such assays
Run Conditions: source organism: Mammarenavirus lassaense
pIC50: −log10 of the molar value.
Quantity Measured: pIC50

{"columns": ["Item Sequence", "Quantity Measured", "Quantitative Result"],
 "data": [
  ["LLMEGLKLLS", "pIC50", 5.07],
  ["LNISGYNFSL", "pIC50", 5.22],
  ["LLWDYMCIS", "pIC50", 4.90]
]}

* * *

Experimental Target: HLA-A*02:03
Test Method Notes: IEDB peptide-MHC binding, purified MHC/competitive/radioactivity; bounds were set here for any values at or beyond the usual limits of such assays
Run Conditions: source organism: Mammarenavirus lassaense
Listing: IC50 of selected sequences
Quantity Measured: IC50 (nM)

{"columns": ["Item Sequence", "Value Unit", "Quantitative Result"],
 "data": [
  ["LLMEGLKLLS", "nM", 40],
  ["YCSNIKLQVV", "nM", 802],
  ["FSTSFYLISI", "nM", 53],
  ["MSIQLINKAV", "nM", 1800],
  ["LNCLSLLLSV", "nM", 230],
  ["LNISGYNFSL", "nM", 4550],
  ["SIINHKFCNL", "nM", 562],
  ["NCLSLLLSV", "nM", 437],
  ["LNQAVNNLV", "nM", 3350],
  ["LLWDYMCIS", "nM", 597]
]}

* * *

Experimental Target: HLA-A*02:01
Test Method Notes: IEDB peptide-MHC binding, purified MHC/competitive/radioactivity; bounds were set here for any values at or beyond the usual limits of such assays
Run Conditions: source organism: Influenza A virus
We begin with a simple list: items and their reported IC50.

{"columns": ["Item Sequence", "Experimental Target", "IC50 [nM]"],
 "data": [
  ["RLIQNSITI", "HLA-A*02:01", 84],
  ["AIMDKNIML", "HLA-A*02:01", 75],
  ["FQVDCFLWH", "HLA-A*02:01", 336],
  ["CVNGSCFTV", "HLA-A*02:01", 3940],
  ["YLIRALTL", "HLA-A*02:01", 607],
  ["VLFQNWGI", "HLA-A*02:01", 849],
  ["NVMGMIGV", "HLA-A*02:01", 1460],
  ["SCINRCFYV", "HLA-A*02:01", 295],
  ["ILGFVFTL", "HLA-A*02:01", 1.2],
  ["LLFLKVPA", "HLA-A*02:01", 266],
  ["NLFEKFFPSS", "HLA-A*02:01", 271],
  ["LLLIVQALR", "HLA-A*02:01", 3090],
  ["VNNAVVMPA", "HLA-A*02:01", 468],
  ["RMGAVTTEV", "HLA-A*02:01", 222],
  ["YNAELLVLL", "HLA-A*02:01", 609],
  ["RAMAWTVVNSI", "HLA-A*02:01", 624],
  ["QIAILVTTV", "HLA-A*02:01", 1090],
  ["SSLENFRAYV", "HLA-A*02:01", 172],
  ["MQALQLLLEV", "HLA-A*02:01", 67],
  ["RTMAWTVVNSI", "HLA-A*02:01", 650],
  ["MQIRGFVYFV", "HLA-A*02:01", 15]
]}
